I'd appreciate it if you could supply inhibition at 1 µM values for the items below.
molecular target: PDE4B (Homo sapiens, UniProt Q07343); experiment: Scintillation Proximity (SPA) Assay of PDE4B enzyme inhibition; assay type: biochemical; settings: test substance 1 μM; one hour incubation of [H3]-cAMP with PDE4B enzyme at 30° C.; read-out: % Inhibition PDE4B @ 1 μM
Sequence (Q07343 whole entry, species assumed): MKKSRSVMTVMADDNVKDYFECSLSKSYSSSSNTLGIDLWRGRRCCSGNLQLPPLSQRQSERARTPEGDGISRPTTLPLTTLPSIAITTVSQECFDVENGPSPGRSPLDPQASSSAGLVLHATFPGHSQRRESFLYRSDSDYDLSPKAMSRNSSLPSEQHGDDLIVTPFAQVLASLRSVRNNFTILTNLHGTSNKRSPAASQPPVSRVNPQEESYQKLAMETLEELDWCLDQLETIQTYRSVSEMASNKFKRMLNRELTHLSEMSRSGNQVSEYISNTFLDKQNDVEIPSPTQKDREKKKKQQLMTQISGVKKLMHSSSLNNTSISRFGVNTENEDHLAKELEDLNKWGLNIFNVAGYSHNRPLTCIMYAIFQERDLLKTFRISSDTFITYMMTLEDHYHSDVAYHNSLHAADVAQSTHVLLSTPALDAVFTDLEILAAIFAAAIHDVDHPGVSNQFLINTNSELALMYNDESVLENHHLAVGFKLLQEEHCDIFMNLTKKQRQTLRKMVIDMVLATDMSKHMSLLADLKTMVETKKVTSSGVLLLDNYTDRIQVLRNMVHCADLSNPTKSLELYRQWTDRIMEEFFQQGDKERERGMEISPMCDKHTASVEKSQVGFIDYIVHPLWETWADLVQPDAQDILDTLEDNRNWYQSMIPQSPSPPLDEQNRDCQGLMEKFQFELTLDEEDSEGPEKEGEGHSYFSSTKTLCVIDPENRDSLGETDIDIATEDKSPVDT
Please give a number only; it is taken to be in %.

Input: Quote inhibition at 1 µM reported for [O-][S+]1CCc2nc(N3CCN(c4cccc(F)c4)CC3)nc(Nc3cccc(F)c3)c21 (centres unmarked) [Example 47] please.
Output: 96

Input: Quote inhibition at 1 µM reported for CC(C)C(CO)Nc1nc(N2CCN(c3cccc(F)c3)CC2)nc2c1[S+]([O-])CC2 (centres unmarked) [Example 27] please.
Output: 96

Input: Quote inhibition at 1 µM reported for [O-][S+]1CCc2nc(N3CCN(c4ccccc4Cl)CC3)nc(NC3CCOCC3)c21 (centres unmarked) [Example 19] please.
Output: 95

Input: Quote inhibition at 1 µM reported for CC(C)[C@H](CO)Nc1nc(N2CCN(c3ccccc3C#N)CC2)nc2c1[S+]([O-])CC2 (some centres unmarked) [Example 2] please.
Output: 92

Input: Quote inhibition at 1 µM reported for Cc1cc(Cl)ccc1N1CCN(c2nc3c(c(N[C@@H](CO)C(C)C)n2)[S+]([O-])CC3)CC1 (some centres unmarked) [Example 75] please.
Output: 90

Input: Quote inhibition at 1 µM reported for Cc1cc(Cl)ccc1N1CCN(c2nc3c(c(NC4(CO)CC4)n2)[S+]([O-])CC3)CC1 (centres unmarked) [Example 81] please.
Output: 95

Input: Quote inhibition at 1 µM reported for COc1ccccc1N1CCN(c2nc3c(c(Nc4cccc(F)c4)n2)[S+]([O-])CC3)CC1 (centres unmarked) [Example 21] please.
Output: 96

Input: Quote inhibition at 1 µM reported for [O-][S+]1CCc2nc(N3CCN(c4ccc(Cl)c(Cl)c4)CC3)nc(NC3(CO)CC3)c21 (centres unmarked) [Example 57] please.
Output: 96

###

molecular target: PDE4B (Homo sapiens); test: Scintillation Proximity (SPA) Assay of PDE4B enzyme inhibition; type: biochemical; conditions: read-out: % Inhibition PDE4B @ 1 μM
quantity_name: inhibition at 1 µM (%)
Please give a number only; it is taken to be in %.

Input: Quote inhibition at 1 µM reported for CN1C[C@@H](Nc2nc(N3CCN(c4ccc(Cl)c(Cl)c4)CC3)nc3c2[S+]([O-])CC3)CCC1=O (some centres unmarked) please.
Output: 96

Input: Quote inhibition at 1 µM reported for CN1C[C@@H](Nc2nc(N3CCN(c4ccc(Cl)c(F)c4)CC3)nc3c2[S+]([O-])CC3)CCC1=O (some centres unmarked) please.
Output: 94

Input: Quote inhibition at 1 µM reported for Cc1cc(C)cc(N2CCN(c3nc4c(c(Nc5cccc(F)c5)n3)[S+]([O-])CC4)CC2)c1 (centres unmarked) please.
Output: 97

Input: Quote inhibition at 1 µM reported for CN1C[C@@H](Nc2nc(N3CCN(c4cccc(F)c4)CC3)nc3c2[S+]([O-])CC3)CCC1=O (some centres unmarked) please.
Output: 97

Input: Quote inhibition at 1 µM reported for Cc1cc(Cl)ccc1N1CCN(c2nc3c(c(N[C@H]4CCC(=O)N(C)C4)n2)[S+]([O-])CC3)CC1 (some centres unmarked) please.
Output: 97
